B1: TPR 5TU (parent)
chain: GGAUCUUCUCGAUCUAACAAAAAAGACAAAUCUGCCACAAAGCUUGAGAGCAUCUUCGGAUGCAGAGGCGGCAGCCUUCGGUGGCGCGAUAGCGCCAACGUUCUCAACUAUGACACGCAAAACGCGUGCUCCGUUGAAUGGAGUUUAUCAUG

# Variants of: B1
# assay.info: polymerase ribozyme fitness, log enrichment relative to wild type (log ratio); higher = more active; in vitro selection for triplet polymerase activity
Fewer inactive variants are shown than the library holds.
Catalogue of polymerase ribozyme fitness (log ratio) values
value.type: polymerase ribozyme fitness (log ratio)

variant.name	value.comparator	data.value
A16G C76U C79A G83U G152U	≤	-4.2
U45G U53A C85U	=	-1.63
C18G U53A U139C	≤	-4.2
A20G A22C	=	-0.665
C76U G83C C118U	=	-0.363
G34U U55A A91G G94U	≤	-4.2
A16C A24G A47C C85G A97C A120G	≤	-4.2
C57U G83A C99A	=	-2.32
C10U C27G C54U C95G C96G A110G	≤	-4.2
C35U A40U U55A C99A U101G G152A	≤	-4.2
C38U C57A G74U G83C	≤	-4.2
C14G A47C	=	-2.35
A73G C85G	=	-1.1
A98U G136U	=	-2.64
G50A G84U A147U	=	-1.53
A19C A21U U101A	=	0.427
U15A U55A G59A	=	0.845
A40C U109C	=	-3.47
U7C U31A G46A G59C C85G C118U	≤	-4.2
G50U C93G	=	-3.35
C27A A119U G133C A137G G140U U144G	≤	-4.2
C85A G126C	=	-0.131
G34A A39U C96A U135C G140C	≤	-4.2
A52C G152U	=	-3.45
C93A A97U	=	-3.38
G80A G84A C116A U135G	≤	-4.2
C57U C75A G88C G133U	≤	-4.2
U4A A12U G84A A89G	=	-0.965
C93G A122U	=	-2.98
G59C C95G C103U G126A	=	-2.28
G92C U148G	=	-3.89
C35G C79A G83A A121U	≤	-4.2
A20U G65C C85U A106U	≤	-4.2
A91C C114U U139C	≤	-4.2
C57G C93G	=	-4.06
G42U A64C C79U G88A A106G A107C A147U	≤	-4.2
A17C G34A C96G A121G A122C U134C	=	-1.47
C54G C76U U77C C87A G126U	≤	-4.2
U4G C75G A91U G92A U101G C125U	≤	-4.2
A41U U145A	=	-0.141
C51U G92A	=	-3.5
C5U G46A U61G	=	-4.13
A23C C43U A47C C57G C87A A121G G143C U144G	≤	-4.2
A3G A24U U55A C85A	=	-2.17
U61G C93G A98U A138C	≤	-4.2
